Listed sequences paired with reported Minimum Inhibitory Concentration (MIC)
tested on: C. albicans (ATCC 14053); format: cell-based, Candida albicans; conditions: Mueller-Hinton Broth, 2 × 10^4 CFU/mL, 18 h at 37°C, visible turbidity, complete growth inhibition
Enter your answer as a number in µg/mL; do not include the unit.

Recorded Minimum Inhibitory Concentration (MIC), per entry:
State the recorded Minimum Inhibitory Concentration (MIC) for this entry: KRMKLNAKKLSFCDHLNSYLNLSPTLFIHNSSKQWSHWLWHNGIRI [ISGCock_Contig15_1337–1, synthetic peptide, first AMPA stretch of a predicted novel AMP from a P. americana transcript]
16

State the recorded Minimum Inhibitory Concentration (MIC) for this entry: MKTFLRLYRSLINKVLHV [ISGCock_Contig05_0593, synthetic peptide, AMPA stretch of a predicted novel AMP from a P. americana transcript]
4

From here, focus on the item given below.
State the recorded Minimum Inhibitory Concentration (MIC) for this entry: ISHNHLTAASITHVKNRGKYIYMHLKFRKTNVLI [ISGCock_Contig16_2060, synthetic peptide, AMPA stretch of a predicted novel AMP from a P. americana transcript]
16
